System: A. baumannii
Test: Growth in sugars, microfluidic device (phenol red colour change); also: key: + indicates growth; − indicates no growth
Format: cell-based
Conditions: A. baumannii; sugar 1% (w/v), LB with 0.05% phenol red pH 8.2
recordedMetric: Growth, Device

OC[C@H]1O[C@H](OC[C@H]2O[C@H](O[C@]3(CO)O[C@H](CO)[C@@H](O)[C@@H]3O)[C@H](O)[C@@H](O)[C@@H]2O)[C@H](O)[C@@H](O)[C@H]1O [Raffinose, raffinose] = −
OC[C@H]1O[C@@H](O[C@H]2[C@H](O)[C@@H](O)[C@@H](O)O[C@@H]2CO)[C@H](O)[C@@H](O)[C@@H]1O [Cellbiose, cellbiose] = −
O=C[C@H](O)[C@@H](O)[C@H](O)CO [Xylose, xylose] = +
OCC(O)CO [Glycerol, glycerol] = −

###

System: E. coli (UT189)
Test: Growth in sugars, culture tubes
Format: cell-based
Description: Results observed in microfluidic devices are illustrated in FIGS. 29A-F and 30A-E. The predicted growth as compared to devices and culture tubes are summarized in Table 2.
recordedMetric: Growth, Tube

Consider the worked cases shown below.
OC[C@H]1O[C@@H](O[C@H]2[C@H](O)[C@@H](O)[C@@H](O)O[C@@H]2CO)[C@H](O)[C@@H](O)[C@@H]1O = −
OC[C@H]1O[C@H](O[C@H]2O[C@H](CO)[C@@H](O)[C@H](O)[C@H]2O)[C@H](O)[C@@H](O)[C@@H]1O = +
OC[C@H]1O[C@H](OC[C@H]2O[C@H](O[C@]3(CO)O[C@H](CO)[C@@H](O)[C@@H]3O)[C@H](O)[C@@H](O)[C@@H]2O)[C@H](O)[C@@H](O)[C@H]1O = −
OCC(O)CO = −
OC[C@H]1O[C@@](CO)(O[C@H]2O[C@H](CO)[C@@H](O)[C@H](O)[C@H]2O)[C@@H](O)[C@@H]1O = −
OC[C@@H](O)[C@@H](O)[C@H](O)[C@H](O)CO = +
OC[C@H]1O[C@@H](O[C@H]2[C@H](O)[C@@H](O)C(O)O[C@@H]2CO)[C@H](O)[C@@H](O)[C@H]1O (some centres unmarked) = +

Shift focus to the following entry.
Quick check: Growth, Tube on E. coli (UT189), item O=C[C@H](O)[C@@H](O)[C@H](O)CO ? +

###

Tested on: E. faecalis
Test: Growth in sugars, culture tubes
Type: cell-based
recordedMetric: Growth, Tube

Example results:
OC[C@@H](O)[C@@H](O)[C@H](O)[C@H](O)CO = +
OC[C@H]1O[C@@](CO)(O[C@H]2O[C@H](CO)[C@@H](O)[C@H](O)[C@H]2O)[C@@H](O)[C@@H]1O = +
OC[C@H]1O[C@@H](O[C@H]2[C@H](O)[C@@H](O)C(O)O[C@@H]2CO)[C@H](O)[C@@H](O)[C@H]1O (some centres unmarked) = +
OC[C@H]1O[C@@H](O[C@H]2[C@H](O)[C@@H](O)[C@@H](O)O[C@@H]2CO)[C@H](O)[C@@H](O)[C@@H]1O = +
OC[C@H]1O[C@H](OC[C@H]2O[C@H](O[C@]3(CO)O[C@H](CO)[C@@H](O)[C@@H]3O)[C@H](O)[C@@H](O)[C@@H]2O)[C@H](O)[C@@H](O)[C@H]1O = −

So what does the record say about Growth, Tube for OCC(O)CO ? +

Recorded Growth, Tube of O=C[C@H](O)[C@@H](O)[C@H](O)CO , please. −

# Growth, Tube lookup, item OC[C@H]1O[C@H](O[C@H]2O[C@H](CO)[C@@H](O)[C@H](O)[C@H]2O)[C@H](O)[C@@H](O)[C@@H]1O +

###

Tested on: K. pneumoniae
Test: Growth in sugars, microfluidic device (phenol red colour change); also: key: + indicates growth; − indicates no growth
Type: cell-based
Conditions: K. pneumoniae; sugar 1% (w/v), LB with 0.05% phenol red pH 8.2
recordedMetric: Growth, Device

# annotated cases, reported Growth, Device shown
OC[C@H]1O[C@H](OC[C@H]2O[C@H](O[C@]3(CO)O[C@H](CO)[C@@H](O)[C@@H]3O)[C@H](O)[C@@H](O)[C@@H]2O)[C@H](O)[C@@H](O)[C@H]1O = +
OC[C@@H](O)[C@@H](O)[C@H](O)[C@H](O)CO = +
OC[C@H]1O[C@@H](O[C@H]2[C@H](O)[C@@H](O)[C@@H](O)O[C@@H]2CO)[C@H](O)[C@@H](O)[C@@H]1O = −
OCC(O)CO = +

Looking for the measured Growth, Device of O=C[C@H](O)[C@@H](O)[C@H](O)CO , can you help? −

Which measured Growth, Device value corresponds to OC[C@H]1O[C@@](CO)(O[C@H]2O[C@H](CO)[C@@H](O)[C@H](O)[C@H]2O)[C@@H](O)[C@@H]1O ? +

Sample OC[C@H]1O[C@H](O[C@H]2O[C@H](CO)[C@@H](O)[C@H](O)[C@H]2O)[C@H](O)[C@@H](O)[C@@H]1O — what was its Growth, Device? +

Item under review: OC[C@H]1O[C@@H](O[C@H]2[C@H](O)[C@@H](O)C(O)O[C@@H]2CO)[C@H](O)[C@@H](O)[C@H]1O (some centres unmarked) . Reported Growth, Device? −

Origin of the recorded values: patent US9687845B2
